From: PubChem BioAssay AID588590

Biological target: DNA polymerase iota (Homo sapiens) (UniProt Q9UNA4)
Sequence (Q9UNA4 whole entry, looked up): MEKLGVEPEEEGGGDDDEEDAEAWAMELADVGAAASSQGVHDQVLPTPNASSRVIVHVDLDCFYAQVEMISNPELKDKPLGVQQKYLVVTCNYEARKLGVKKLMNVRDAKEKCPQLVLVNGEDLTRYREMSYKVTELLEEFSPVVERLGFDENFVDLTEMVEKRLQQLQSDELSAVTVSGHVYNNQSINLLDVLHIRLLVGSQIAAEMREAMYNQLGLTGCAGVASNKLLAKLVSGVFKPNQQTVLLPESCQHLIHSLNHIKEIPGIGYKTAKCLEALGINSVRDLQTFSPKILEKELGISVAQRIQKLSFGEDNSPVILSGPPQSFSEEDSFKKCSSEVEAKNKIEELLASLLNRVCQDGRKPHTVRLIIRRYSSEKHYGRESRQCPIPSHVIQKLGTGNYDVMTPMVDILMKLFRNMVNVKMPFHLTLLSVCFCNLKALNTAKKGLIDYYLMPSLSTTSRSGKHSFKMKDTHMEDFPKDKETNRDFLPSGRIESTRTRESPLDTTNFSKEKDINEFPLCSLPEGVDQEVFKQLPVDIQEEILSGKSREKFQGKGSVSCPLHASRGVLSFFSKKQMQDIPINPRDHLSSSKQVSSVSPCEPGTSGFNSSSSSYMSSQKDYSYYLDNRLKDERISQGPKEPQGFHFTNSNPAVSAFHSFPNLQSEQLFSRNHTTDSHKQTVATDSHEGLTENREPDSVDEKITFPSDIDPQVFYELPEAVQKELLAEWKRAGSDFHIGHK
Assay: qHTS for Inhibitors of Polymerase Iota; also: potency is read from the fitted curve at half-maximal effect
Settings: Pol iota fluorescent replication assay, 10 min; series mostly up to 115 µM
The whole screen tested about 390,000 compounds, of which about 4,000 (1%) were called active. Roughly 7% stayed inconclusive and do not appear here. The sample holds actives, similar compounds and a random draw of the others, so the mix is not that of the screen.
property_name: Potency

// worked examples, Potency included
{"molecule": "CCn1cc(C(=O)N2CCN(c3cc(C)ccc3C)CC2)c(=O)c2cc(S(=O)(=O)N(C)C3CCCCC3)ccc21", "observed_value": "inactive"}
{"molecule": "CC(C)(C)c1ccc(C(=O)NCC(c2ccco2)S(=O)(=O)c2ccc(F)cc2)cc1 (centres undefined)", "observed_value": "inactive"}
{"molecule": "Cc1ccc(-c2onc(C)c2C)cc1S(=O)(=O)Nc1ccccn1", "observed_value": "inactive"}
{"molecule": "CC(=O)c1ccc(S(=O)(=O)Nc2ccc(-c3ccc4nncn4n3)cc2)cc1", "observed_value": "50.1 µM (active)"}
{"molecule": "Cc1cccc(-c2nnc(SC(C)C(=O)Nc3ccccc3)n2C)c1 (centres undefined)", "observed_value": "inactive"}

Your task in this section: give Potency for each listed record.
1. Fc1ccc(-c2ccc(-c3nn4c(-c5ccco5)nnc4s3)o2)cc1
2. COc1ccccc1OC(C)C(=O)Nc1ccc(S(=O)(=O)Nc2nccs2)cc1 (centres undefined)
3. O=[N+]([O-])c1ccc(N(CCO)Cc2ccccc2)c([N+](=O)[O-])c1
4. COC(=O)/C=C\C(=O)Nc1cccc([N+](=O)[O-])c1
5. CSc1ccc(CCNC(=O)c2cnn(-c3ccccc3)c2-n2cccc2)cc1
6. CN1CCOC1c1ccc(C2OCCN2C)cc1 (centres undefined)
7. O=C1CCCC(O)=C1N=Nc1ccc2ncsc2c1

*A*
inactive
inactive
inactive
inactive
inactive
20 µM (active)
39.8 µM (active)

Your task in this section: give Potency for each listed record.
1. C=CCn1c(SCC(=O)NCCCO)nc2sc3c(c2c1=O)CCC3
2. O=C(Nc1ccc(-c2ccc3nncn3n2)cc1)C1CCCCC1

*A*
1. inactive
2. inactive

Your task in this section: give Potency for each listed record.
1. CCOC(=O)c1scc(-c2ccc(C)cc2)c1S(=O)(=O)Nc1cc(C)ccc1C
2. O=C(O)c1ccc(Cn2c(SCc3ccc(F)cc3)nc3ccncc32)cc1
3. COc1cccc(Cn2c(SCc3ccc(C(=O)N4CCCCC4)cc3)nc3ccncc32)c1
4. O=C1Nc2ccc([N+](=O)[O-])cc2C1=Nc1cccc(CO)c1
5. Cc1cccn2c(=O)c(/C=C(\C#N)S(=O)(=O)c3ccc(Cl)cc3)c(N3CCC(C(N)=O)CC3)nc12
6. COc1cccc(NC(=O)N2CCN(C(=O)c3nsc4ccccc34)CC2)c1
7. COc1ccc(CCn2c3c(c(=O)[nH]c2=S)CN(C(C)C)CN3)cc1OC

*A*
1. inactive
2. inactive
3. inactive
4. 7.94 µM (active)
5. inactive
6. inactive
7. inactive

* * *

Target: DNA polymerase iota (Homo sapiens)
Assay: qHTS for Inhibitors of Polymerase Iota
Conditions: Pol iota fluorescent replication assay, 10 min; series mostly up to 115 µM
The whole screen tested about 390,000 compounds, of which about 4,000 (1%) were called active. About 7% were inconclusive and are not listed. Calls follow the shape of the dose curve; as a rule, active = well fitted inhibition curve with a large enough effect; inconclusive = small, poorly fitted or top-dose-only effect, or another doubt; inactive = no such curve, though single readings can be large or run the other way. For the sample, actives were picked, then their nearest neighbours and some compounds at random.
Form entry, call: pick from active, inactive

Please review the entries below; each comes with its answer.
{"compound": "COc1ccccc1-c1noc(CSc2nnc(-c3ccccc3)n2-c2ccc(C)c(C)c2)n1", "label": "inactive"}
{"compound": "COCCCNC(=O)Cc1ccc(-n2c(C)nc3cccnc32)cc1", "label": "inactive"}
{"compound": "COc1ccc(C2(Nc3cccc(F)c3)C(=O)c3ccccc3C2=O)cc1", "label": "inactive"}

*Q* Check the results log: what was the call for CCOc1ccc(/C=C(\C#N)c2nc3ccccc3c(=O)[nH]2)cc1OC ?
*A* inactive

*Q* Check the results log: what was the call for CCOc1ccc(-c2cc3nc(C4CCN(C(=O)OC(C)(C)C)CC4)c(C(=O)Nc4cccc(CC)c4)cn3n2)cc1 ?
*A* inactive

*Q* Check the results log: what was the call for COc1ccc(-c2oc3ncnc(NCCCO)c3c2-c2ccc(OC)cc2)cc1 ?
*A* inactive

*Q* Check the results log: what was the call for CCCOc1ccc(Cn2c(O)cc(=O)[nH]c2=O)cc1 ?
*A* active

*Q* Check the results log: what was the call for Cc1ccc(S(=O)(=O)c2nc(-c3ccco3)oc2SCC(=O)Nc2ccc(F)cc2)cc1 ?
*A* inactive

*Q* Check the results log: what was the call for O=C(NCC(=O)N1CCN(c2ccccc2O)CC1)c1ccc2ccccc2c1 ?
*A* active

*Q* Check the results log: what was the call for CCOC(=O)c1c(C)[nH]c(C)c1S(=O)(=O)N(C)CC(=O)N1CCN(c2ccccc2)CC1 ?
*A* inactive

*Q* Check the results log: what was the call for Cc1cccc(C(=O)Nc2ccc(S(=O)(=O)N3CCCCC3c3cccnc3)cc2)c1 (stereo unspecified) ?
*A* inactive

* * *

Molecular target: DNA polymerase iota (Homo sapiens)
Test: qHTS for Inhibitors of Polymerase Iota
Settings: Pol iota fluorescent replication assay, 10 min; series mostly up to 115 µM
Among all 390,000 compounds or so, about 4,000 (1%) were called active. Inconclusive results (about 7%) are left out. The call rests on the fitted dose curve; in most records, active means well fitted inhibition curve with a large enough effect; inconclusive means small, poorly fitted or top-dose-only effect, or another doubt; inactive means no such curve, though single readings can be large or run the other way. The sample holds actives, similar compounds and a random draw of the others, so the mix is not that of the screen.
Form entry, call: pick from yes (1) for active, no (0) for inactive

Please review the entries below; each comes with its answer.
{"compound": "CCOC(=O)N1CCC(N2Cc3cccc(C(=O)Nc4ccc(S(=O)(=O)N(CC)CC)cc4)c3C2=O)CC1", "measured_target": "DNA polymerase iota (Homo sapiens)", "label": "yes (1)"}
{"compound": "COC(=O)c1cc2occc2n1Cc1nc(-c2ccc(C)cc2)oc1C", "measured_target": "DNA polymerase iota (Homo sapiens)", "label": "no (0)"}
{"compound": "CC(=O)N1c2ccccc2N(Cc2ccc([N+](=O)[O-])cc2)C(=O)C1(C)C", "measured_target": "DNA polymerase iota (Homo sapiens)", "label": "no (0)"}
{"compound": "Cc1ccc(C(=O)CC2(O)C(=O)N(CCc3ccccc3)c3ccc(Br)cc32)cc1 (stereo not given)", "measured_target": "DNA polymerase iota (Homo sapiens)", "label": "no (0)"}
{"compound": "COc1cccc(C(=O)Nc2ccc3oc(-c4ccc5ccccc5c4)nc3c2)c1", "measured_target": "DNA polymerase iota (Homo sapiens)", "label": "no (0)"}
{"compound": "COc1cccc(CNC(=O)CN2C(=O)CCc3cc(S(=O)(=O)N4CCOCC4)ccc32)c1", "measured_target": "DNA polymerase iota (Homo sapiens)", "label": "no (0)"}

*Q* Check the results log: what was the call for COc1ccc(-c2c(C)c3ccc(O)c(CN4CCN(C)CC4)c3oc2=O)cc1OC ?
*A* no (0)

*Q* Check the results log: what was the call for CC(=O)c1ccc(NC(=O)c2nc3nc(C)cc(C(F)F)n3n2)cc1 ?
*A* no (0)

*Q* Check the results log: what was the call for COc1cccc(C(=O)NC(=O)Nc2ccc(-c3cc(C(F)(F)F)nn3-c3ccccc3)cc2)c1 ?
*A* no (0)

*Q* Check the results log: what was the call for Cc1cc(=O)n2[nH]c(-c3sccc3-n3c(C)ccc3C)cc2n1 ?
*A* yes (1)

* * *

Molecular target: DNA polymerase iota (Homo sapiens) (UniProt Q9UNA4)
Experiment: qHTS for Inhibitors of Polymerase Iota; also: potency is read from the fitted curve at half-maximal effect
Conditions: Pol iota fluorescent replication assay, 10 min; series mostly up to 115 µM
Description: DNA polymerases, such as Pol iota, are specifically involved in DNA repair. Pol iota specifically plays an important role in translesion synthesis, where the normal high-fidelity DNA polymerases cannot proceed and DNA synthesis stalls. […] Thus, while pol eta's (and most likely iota's) normal function is to protect humans against the deleterious consequences of DNA damage, under certain conditions they can have deleterious effects on human health. […]
Out of some 390,000 compounds screened, about 4,000 (1%) were called active. About 7% were inconclusive and are not listed. The full list was thinned out, with actives kept by preference.
property_name: Potency

// worked examples, Potency included
{"molecule": "COc1ccccc1CNC(=O)CS(=O)(=O)c1cccc2nsnc12", "Potency": "inactive"}
{"molecule": "CCOC(=O)c1sc2nc(CSCC(=O)OCc3ccc(C(=O)OC)o3)[nH]c(=O)c2c1C", "Potency": "inactive"}
{"molecule": "CCOC(=O)C/C(C)=N\\Nc1ccc([N+](=O)[O-])cc1[N+](=O)[O-]", "Potency": "inactive"}
{"molecule": "CCc1ccc(N2CC(C(=O)NC3=NCCS3)CC2=O)cc1 (stereo not given)", "Potency": "89.1 µM (active)"}
{"molecule": "CCC(C)(C)NC(=O)c1cc([N+](=O)[O-])ccc1N1CCCCC1", "Potency": "inactive"}
{"molecule": "O=C(O)C1CCN(c2ccc([N+](=O)[O-])cc2[N+](=O)[O-])CC1", "Potency": "20 µM (active)"}
{"molecule": "Cc1ccc(N(CC(=O)NCC(C)c2ccccc2)S(=O)(=O)N(C)C)cc1 (stereo not given)", "Potency": "inactive"}
{"molecule": "COc1ccc(C)cc1NC(=O)CCc1c(C)nn(-c2ccc(N3CCOCC3)nn2)c1C", "Potency": "inactive"}
{"molecule": "Cc1ccc(/C=N/NC(=O)c2cc3ccccc3cc2O)o1", "Potency": "50.1 µM (active)"}

Let's switch to this molecule now.
Reported Potency ( CSc1nnc(SCc2nc3sc(C(=O)O)c(C)c3c(=O)[nH]2)s1 ) = 3.98 µM (active)
